# test target: GCN2 kinase (Homo sapiens)
# Sequence (Q9P2K8 whole entry): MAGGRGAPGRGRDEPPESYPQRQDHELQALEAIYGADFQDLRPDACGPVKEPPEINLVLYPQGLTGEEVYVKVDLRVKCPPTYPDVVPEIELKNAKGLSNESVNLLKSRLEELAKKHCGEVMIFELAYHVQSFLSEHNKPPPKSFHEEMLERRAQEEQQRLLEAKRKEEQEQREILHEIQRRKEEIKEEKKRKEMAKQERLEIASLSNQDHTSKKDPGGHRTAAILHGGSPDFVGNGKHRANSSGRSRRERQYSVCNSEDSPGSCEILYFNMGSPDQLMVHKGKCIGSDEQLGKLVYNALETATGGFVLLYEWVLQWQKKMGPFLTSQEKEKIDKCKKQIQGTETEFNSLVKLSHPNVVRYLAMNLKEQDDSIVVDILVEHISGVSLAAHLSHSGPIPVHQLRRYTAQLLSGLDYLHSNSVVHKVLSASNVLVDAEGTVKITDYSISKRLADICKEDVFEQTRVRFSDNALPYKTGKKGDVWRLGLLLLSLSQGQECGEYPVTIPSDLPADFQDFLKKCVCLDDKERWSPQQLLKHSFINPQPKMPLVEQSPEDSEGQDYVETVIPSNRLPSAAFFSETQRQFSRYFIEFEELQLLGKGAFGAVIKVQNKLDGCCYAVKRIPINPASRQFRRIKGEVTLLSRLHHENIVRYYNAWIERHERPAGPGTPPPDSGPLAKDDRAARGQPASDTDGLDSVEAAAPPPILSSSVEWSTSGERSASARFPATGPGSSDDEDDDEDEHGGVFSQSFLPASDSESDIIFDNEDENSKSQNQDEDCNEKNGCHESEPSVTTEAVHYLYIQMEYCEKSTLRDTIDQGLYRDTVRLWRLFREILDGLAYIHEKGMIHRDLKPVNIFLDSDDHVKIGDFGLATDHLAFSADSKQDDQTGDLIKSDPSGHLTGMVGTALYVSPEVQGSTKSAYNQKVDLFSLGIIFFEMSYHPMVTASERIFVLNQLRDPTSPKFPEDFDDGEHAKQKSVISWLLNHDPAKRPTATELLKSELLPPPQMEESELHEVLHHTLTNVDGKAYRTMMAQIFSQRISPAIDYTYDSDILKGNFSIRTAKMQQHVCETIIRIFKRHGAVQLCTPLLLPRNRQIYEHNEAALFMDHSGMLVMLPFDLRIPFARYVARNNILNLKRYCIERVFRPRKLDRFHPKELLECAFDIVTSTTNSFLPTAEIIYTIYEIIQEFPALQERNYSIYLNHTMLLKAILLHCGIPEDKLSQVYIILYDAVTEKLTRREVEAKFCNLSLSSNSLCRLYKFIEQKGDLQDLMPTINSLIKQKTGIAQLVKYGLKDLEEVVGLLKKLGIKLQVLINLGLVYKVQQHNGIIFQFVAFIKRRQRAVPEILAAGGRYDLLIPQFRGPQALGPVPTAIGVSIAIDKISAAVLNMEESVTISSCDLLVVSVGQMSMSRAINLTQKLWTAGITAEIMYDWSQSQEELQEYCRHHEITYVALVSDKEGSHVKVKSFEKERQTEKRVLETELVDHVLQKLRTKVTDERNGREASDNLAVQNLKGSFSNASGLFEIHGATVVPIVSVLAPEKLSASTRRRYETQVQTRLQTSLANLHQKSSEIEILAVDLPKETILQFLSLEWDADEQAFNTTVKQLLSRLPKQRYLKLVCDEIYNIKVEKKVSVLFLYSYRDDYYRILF
# measurement description: GCN2 enzyme inhibition assay (Transcreener ADP2 fluorescence polarization)
# Type: biochemical
# experimental context: compounds of Formula II; 280 μM ATP, 4 nM GCN2 kinase
measured property: Ki

# annotated cases, reported Ki shown
| molecule | Ki |
| --- | --- |
| CS(=O)(=O)N1CCCN(c2cc(-c3cnc4ccc(C(F)F)nn34)ncn2)CC1 | 10 to 1000 nM |
| CC1C2COC(=O)N2CCN1c1cc(-c2cnc3ccc(C(F)F)nn23)ncn1 (centres unmarked) | 10 to 1000 nM |
| C[C@@H]1COCCN1c1cc(-c2cnc3ccc(C(F)F)nn23)ncn1 | 10 to 1000 nM |
| CC1C(CNS(C)(=O)=O)OC(C)(C)CN1c1cc(-c2cnc3ccc(C(F)F)nn23)ncn1 (single isomer, unassigned) [II-489] | > 1000 nM |
| CC1CC(CS(C)(=O)=O)C(C)N(c2cc(-c3cnc4ccc(C(F)F)nn34)ncn2)C1 (single isomer, unassigned) [II-626] | < 10 nM |
| CS(=O)(=O)N1CC2(CN(c3cc(-c4cnc5ccc(C(F)F)nn45)ncn3)CCO2)C1 | 10 to 1000 nM |
| CC1C(CNS(C)(=O)=O)CN(c2cc(-c3cnc4ccc(C(F)F)nn34)ncn2)CC1(F)F (centres unmarked) [II-382] | 10 to 1000 nM |

Next molecule, Ki to be filled in.
Request: Please list Ki recorded for the molecule C[S+]([O-])CC1CCCN(c2cc(-c3cnc4ccc(C(F)F)nn34)ccn2)C1 (centres unmarked)
Response: 10 to 1000 nM
